meta.source: ChEMBL document CHEMBL1153224

Provide the recorded Vd for the entries that follow.
Assay: Volume of distribution at steady state in rat at 1 mg/kg, iv and 2 mg/kg, po
Type: ADME, organism-based
Conditions: in vivo, read-out: Vdss
Answers are plain numbers, in L/kg.

CC(C)(C)CCC(CCC(F)(F)F)N1CCC(F)(F)[C@H](CC(=O)O)[C@H]1c1ccc(C(F)(F)F)cc1 (some centres not stated)	1.9

Q: Fill blank: measured Vd of the compound "C[Si](C)(C)CC[C@H](CCC(F)(F)F)N1CC[C@@H](CC(=O)O)C(F)(F)[C@H]1c1ccc(C(F)(F)F)cc1" is ____.
Ans: 5.1

###

Test: Oral bioavailability in rat at 2 mg/kg
Assay type: ADME, organism-based
Settings: in vivo
Measurement Type: bioavailability (%)
Give bare numbers, in %.

Q: Fill blank: measured bioavailability of the compound "C[Si](C)(C)CC[C@H](CCC(F)(F)F)N1CC[C@@H](CC(=O)O)C(F)(F)[C@H]1c1ccc(C(F)(F)F)cc1" is ____.
Ans: 20

###

Molecular target: Gamma-secretase
Assay: Inhibition of gamma secretase in human SHSY5Y cells expressing wild-type APP assessed as inhibition of intracellular amyloid beta-42 by electrochemiluminescent assay
Type: cell-based
Conditions: sh-sy5y
Provide the recorded pIC50 for the entries that follow.
Give bare numbers, as −log10 of the molar value.

Worked cases, answers included:
CC(C)(C)C#CC(CCC(F)(F)F)N1CCC(F)(F)[C@H](CC(=O)O)[C@H]1c1ccc(C(F)(F)F)cc1 (single isomer, unassigned; enantiomer 2)	6.41
CC(C)(C)C#CC(CCC(F)(F)F)N1CCC(F)(F)[C@H](CC(=O)O)[C@H]1c1ccc(C(F)(F)F)cc1 (mixture of isomers)	6.10
CC(C)CC[C@H](c1ccc(C(F)(F)F)cc1)N1CC[C@@H](CC(=O)O)C(F)(F)[C@H]1c1ccc(C(F)(F)F)cc1	6.15
C[Si](C)(C)CCC(CCC(F)(F)F)N1CCC(F)(F)[C@H](CC(=O)O)[C@H]1c1ccc(C(F)(F)F)cc1 (single isomer, unassigned; enantiomer 2)	6.19
CC(C)(C)CCC(CCC(F)(F)F)N1CCC(F)(F)[C@H](CC(=O)O)[C@H]1c1ccc(C(F)(F)F)cc1 (single isomer, unassigned; enantiomer 1)	5.85

Q: Fill blank: measured pIC50 of the molecule "C[Si](C)(C)CC[C@H](CCC(F)(F)F)N1CC[C@@H](CC(=O)O)C(F)(F)[C@H]1c1ccc(C(F)(F)F)cc1" is ____.
Ans: 6.64

###

Experiment: Plasma concentration in APP-YAC transgenic mouse at 10 mg/kg, po after 7 hrs
Assay type: ADME, organism-based
Parameters: dose 10 mg/kg, route oral
Conditions: APP-YAC transgenic, plasma
Measurement Type: concentration at 7 h (nM)
Answers are plain numbers, in nM.

Q: Fill blank: measured concentration at 7 h of the compound CC(C)(C)CCC(CCC(F)(F)F)N1CCC(F)(F)[C@H](CC(=O)O)[C@H]1c1ccc(C(F)(F)F)cc1 (stereo partly specified) is ____.
Ans: 1100

###

Target: Gamma-secretase
Assay: Inhibition of gamma secretase in human SHSY5Y cells expressing wild-type APP assessed as inhibition of intracellular amyloid beta-42 by electrochemiluminescent assay
Type: cell-based
Conditions: sh-sy5y
Provide the recorded IC50 for the entries that follow.
Numbers only, in µM.

CC(C)CCC(CCC(C)C)N1CCC(F)(F)[C@H](CC(=O)O)[C@H]1c1ccc(C(F)(F)F)cc1	0.88
CC(C)(C)C#CC(CCC(F)(F)F)N1CCC(F)(F)[C@H](CC(=O)O)[C@H]1c1ccc(C(F)(F)F)cc1 (stereo not given in full)	1.5
CC(C)(C)CC[C@H](CCC(F)(F)F)N1CC[C@@H](CC(=O)O)C(F)(F)[C@H]1c1ccc(C(F)(F)F)cc1	0.49

Q: Fill blank: measured IC50 of the compound CC(C)(C)CCC(CCC(F)(F)F)N1CCC(F)(F)[C@H](CC(=O)O)[C@H]1c1ccc(C(F)(F)F)cc1 (stereo not given in full) is ____.
Ans: 0.6
